Reported induced luciferase level as percent of Con1 (maximal expression) values for a set of substances
test system: luciferase expression in HEK 293 cells; type: cell-based; conditions: guanine treatment (500 μM), HEK 293 cells

DHFR_G16: luciferase construct with xpt-guanine aptamer cassette, truncated stem (chain 1 GTAGAAGGTAATGTTAT; chain 2 CTAACATTACGCAC; chemistry not fully specified) ... 83%
DHFR_G15: luciferase construct with the xpt-G15 containing regulatory cassette (SEQ ID NO: 46) (chain 1 GTAGAAGGTAATGTGTAT; chain 2 CTACACATTACGCAC; chemistry not fully specified) ... ~100%

// next item, induced luciferase level as percent of Con1 (maximal expression) requested
Exam item: Need induced luciferase level as percent of Con1 (maximal expression) of DHFR_G14: luciferase construct with xpt-guanine aptamer cassette, truncated stem (chain 1 GTAGAAGGTAATGTGATAT; chain 2 CTATCACATTACGCAC; expressed or natural sequence) , thanks.
Marked response: ~100%
